Assign OD405 FcγIIIa to each entry below.
# Test system: FcγIIIa
# ASSAY_SUMMARY: FcγR reverse ELISA: inhibition of PAP immune complex binding (Table 2)
# CONDITION_CONTEXT: PAP/peptide mixture on FcγR coated plates; positive control 1.588
Ends that are not written are not given here.
Answers are plain numbers.

Sample records with OD405 FcγIIIa:
APPCAFHLGELVWCT (cysteine pairing not given here) [SEQ ID NO:18]    0.880
Asp-Cys-Ala-Trp-His-Leu-Gly-Glu-Leu-Val-Trp-Cys-Thr [SEQ ID NO:2]    0.741
Asp-Cys-Ala-Phe-His-Leu-Gly-Glu-Leu-Val-Trp-Cys-Thr (DCAFHLGELVWCT) [SEQ ID NO:3]    0.810

Batch request: OD405 FcγIIIa for each of the following substances.
1. APPCARHLGELVWCT (cysteine pairing not given here) [SEQ ID NO:16]
2. APPCAWHLGELVWCT (cysteine pairing not given here) [SEQ ID NO:14]
3. Ala-Pro-Pro-Asp-Cys-Ala-Trp-His-Leu-Gly-Glu-Leu-Val-Trp-Cys-Thr (APPDCAWHLGELVWCT) [SEQ ID NO:20]

[out]
0.709
0.530
0.670
